The values you see were collected from patent EP0400785A2.

compounds and their reported DUROMETER AUTOCLAVE
assay: Autoclave stability of cured composition at 121°C (durometer); assay type: physicochemical; conditions: in Acrylamide-polymer B; after 20 hours in an autoclave at 12 1°C and 15 psi
Give just the numeric value; Shore OO need not be written.

Query: DUROMETER AUTOCLAVE; subject: O=C(c1ccccc1)C1(O)CCCCC1 [P-3, (1-hydroxycyclohexyl)phenylmethanone] 40

Query: DUROMETER AUTOCLAVE; subject: `O=C(c1ccccc1)c1ccccc1` 44

Query: DUROMETER AUTOCLAVE; subject: CC(C)(O)C(=O)c1ccccc1 [P-1, 2 hydroxy-2-methylphenylpropan-1-one] 39

Query: DUROMETER AUTOCLAVE; subject: `CCOC(OCC)C(=O)c1ccccc1` 47

====

molecules and their reported DUROMETER HEAT AGED
test: Heat aging / thermal stability of cured composition in oven at 150°C (durometer); type: physicochemical; conditions: in Acrylamide-polymer B; after 20 hours at 150°C in an oven
Give just the numeric value; Shore OO need not be written.

Answered examples (3):
molecule="CC(C)(O)C(=O)c1ccccc1 [P-1, 2 hydroxy-2-methylphenylpropan-1-one]" endpoint_result=36
molecule=CCOC(OCC)C(=O)c1ccccc1 endpoint_result=30
molecule="O=C(c1ccccc1)C1(O)CCCCC1 [P-3, (1-hydroxycyclohexyl)phenylmethanone]" endpoint_result=42

Now consider a different molecule.
Query: DUROMETER HEAT AGED; subject: `O=C(c1ccccc1)c1ccccc1` 43
